Target: IDH2 R140Q (Homo sapiens, UniProt P48735, R140Q)
Sequence (P48735 40-452 R140Q): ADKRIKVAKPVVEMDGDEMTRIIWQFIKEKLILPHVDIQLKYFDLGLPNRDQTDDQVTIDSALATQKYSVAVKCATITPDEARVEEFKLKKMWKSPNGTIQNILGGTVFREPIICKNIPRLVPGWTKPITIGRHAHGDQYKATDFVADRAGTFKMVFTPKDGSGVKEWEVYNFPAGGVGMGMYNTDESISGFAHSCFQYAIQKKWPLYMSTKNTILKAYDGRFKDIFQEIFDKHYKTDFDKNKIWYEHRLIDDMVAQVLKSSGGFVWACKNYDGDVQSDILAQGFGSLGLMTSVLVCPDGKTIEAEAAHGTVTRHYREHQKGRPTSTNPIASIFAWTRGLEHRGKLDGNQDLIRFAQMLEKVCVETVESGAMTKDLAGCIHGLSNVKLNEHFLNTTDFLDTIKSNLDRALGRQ
Assay: IDH2 R140Q enzymatic assay (cofactor depletion, similar format)
Format: biochemical
Conditions: read-out: Enz R140Q
Readings of IC50 for the listed compounds

Consider the worked cases shown below.
>  <compound>
CC(O)CNc1nc(Nc2ccccc2)nc(-c2ccccc2)n1 (centres unmarked) [Compound 240]

>  <IC50>
< 100 nM

$$$$
>  <compound>
CC(C)Nc1nc(Nc2cccc(S(C)(=O)=O)c2)nc(-c2cccc(C(F)F)n2)n1 [Compound 366]

>  <IC50>
100 to 1000 nM

$$$$
>  <compound>
CC#Cc1cccc(-c2nc(Nc3cccc(F)c3)nc(NC(C)C)n2)n1 [Compound 467]

>  <IC50>
100 to 1000 nM

$$$$
>  <compound>
CC(C)Nc1nc(Nc2ccccc2)nc(-c2ccccc2Cl)n1 [Compound 121]

>  <IC50>
< 100 nM

$$$$
>  <compound>
CC(C)(C)CNc1nc(Nc2ccnc(C(F)(F)F)c2)nc(-c2nccc(C(F)(F)F)n2)n1 [Compound 523]

>  <IC50>
100 to 1000 nM

$$$$

Report IC50 for CC(C)Nc1nc(Nc2ccnc(F)c2)nc(-c2cccc(Cl)n2)n1 [Compound 384] tested on IDH2 R140Q (Homo sapiens, UniProt P48735, R140Q).
100 to 1000 nM

Report IC50 for CS(=O)(=O)c1cc(Cl)cc(Nc2nc(NCC3CC3)nc(-c3cccc(C(F)(F)F)n3)n2)c1 [Compound 599] tested on IDH2 R140Q (Homo sapiens, UniProt P48735, R140Q).
100 to 1000 nM

Report IC50 for c1ccc(Nc2nc(NCC3CC3)nc(-c3ccccc3)n2)cc1 [Compound 111] tested on IDH2 R140Q (Homo sapiens, UniProt P48735, R140Q).
< 100 nM

These measurements were taken from patent US9512107B2.
